Every entry's value here was drawn from ChEMBL document CHEMBL5724914.

assay overview: The drug is tested on WLS-310 corresponding to human gut metagenome with ENA study accession number: PRJEB37062 and ENA sample accession number: ERS12561785 for biotransformation under anaerobic condition. The drug concentrations were measured over 9 timepoints collected between 0 and 24 hours of incubation by liquid-chromatography-coupled mass spectrometry (LC–MS); further: call rule not given here
measurement conditions: 2 µM
experimental endpoint: Bacterial Biotransformation

Some entries whose results are on file:
>>> result("CN1CC(=O)N2[C@H](c3ccc4c(c3)OCO4)c3[nH]c4ccccc4c3C[C@@H]2C1=O")
"Compound metabolized"
>>> result("COc1ccccc1OCC(O)CN1CCN(CC(=O)Nc2c(C)cccc2C)CC1 (stereo not drawn) [RANOLAZINE]")
"Compound NOT metabolized"
>>> result("COc1ccc(CCN(C)CCCC(C#N)(c2ccc(OC)c(OC)c2)C(C)C)cc1OC (stereo not drawn)")
"Compound metabolized"
>>> result("NC(=O)N1c2ccccc2CC(=O)c2ccccc21 [OXCARBAZEPINE]")
"Compound NOT metabolized"
>>> result("CCCC(=O)Nc1ccc(OCC(O)CNC(C)C)c(C(C)=O)c1 (stereo not drawn) [ACEBUTOLOL]")
"Compound metabolized"

Consider COc1cc2nc(N3CCN(C(=O)c4ccco4)CC3)nc(N)c2cc1OC [PRAZOSIN] . Its measured Bacterial Biotransformation is Compound metabolized

Item: CN1C[C@H](C(=O)N[C@]2(C)O[C@@]3(O)[C@@H]4CCCN4C(=O)[C@H](Cc4ccccc4)N3C2=O)C=C2c3cccc4[nH]cc(c34)C[C@H]21.CN1C[C@H](C(=O)N[C@]2(C)O[C@@]3(O)[C@@H]4CCCN4C(=O)[C@H](Cc4ccccc4)N3C2=O)C=C2c3cccc4[nH]cc(c34)C[C@H]21.O=C(O)C(O)C(O)C(=O)O [ERGOTAMINE TARTRATE] | Bacterial Biotransformation: Compound metabolized

COc1cc2c(c(OC)c1OC)-c1ccc(OC)c(=O)cc1[C@@H](NC(C)=O)CC2 [COLCHICINE] yielded Bacterial Biotransformation of Compound metabolized

====

assay overview: The drug is tested on Z-029 corresponding to rat gut metagenome with ENA study accession number: PRJEB37062 and ENA sample accession number: ERS12561828 for biotransformation under anaerobic condition. The drug concentrations were measured over 9 timepoints collected between 0 and 24 hours of incubation by liquid-chromatography-coupled mass spectrometry (LC–MS)
measurement conditions: 2 µM
experimental endpoint: Bacterial Biotransformation

>>> result("CC[C@@H](CO)NC(=O)[C@@H]1C=C2c3cccc4c3c(cn4C)C[C@H]2N(C)C1.O=C(O)/C=C\\C(=O)O [METHYSERGIDE MALEATE]")
"Compound NOT metabolized"
>>> result("CC(C)(C)NC[C@H](O)COc1ccccc1C1CCCC1.CC(C)(C)NC[C@H](O)COc1ccccc1C1CCCC1.O=S(=O)(O)O [PENBUTOLOL SULFATE]")
"Compound NOT metabolized"
>>> result("COc1c2occc2cc2ccc(=O)oc12")
"Compound NOT metabolized"

====

measurement conditions: human gut metagenome, 24 h, 2 µM
experimental endpoint: Bacterial Biotransformation

// below: answered compounds
>>> result("CCOc1ccc(NC(C)=O)cc1")
"Compound NOT metabolized"
>>> result("CC(C)(C#N)c1cc(Cn2cncn2)cc(C(C)(C)C#N)c1")
"Compound NOT metabolized"
>>> result("CC(O)(CS(=O)(=O)c1ccc(F)cc1)C(=O)Nc1ccc(C#N)c(C(F)(F)F)c1 (configuration not stated) [BICALUTAMIDE]")
"Compound NOT metabolized"
>>> result("CCCCc1nc(Cl)c(CO)n1Cc1ccc(-c2ccccc2-c2nn[nH]n2)cc1")
"Compound metabolized"
>>> result("Clc1ccc(Cn2c(CN3CCCC3)nc3ccccc32)cc1")
"Compound NOT metabolized"

Continue with the next compound.
What the record says about CC(=O)OCC(=O)[C@@]1(O)[C@@H](C)C[C@H]2[C@@H]3CCC4=CC(=O)C=C[C@]4(C)[C@@]3(F)[C@@H](O)C[C@@]21C [BETAMETHASONE ACETATE] : Bacterial Biotransformation is Compound metabolized

====

measurement conditions: human gut metagenome, 24 h, 2 µM
experimental endpoint: Bacterial Biotransformation

>>> result("O=c1[nH]c2ccccc2n1CCCN1CCC(n2c(=O)[nH]c3cc(Cl)ccc32)CC1")
"Compound NOT metabolized"
>>> result("CCOc1ccc(NC(C)=O)cc1")
"Compound NOT metabolized"
>>> result("CCN(CC)CCNC(=O)c1cc(Cl)c(N)cc1OC [METOCLOPRAMIDE]")
"Compound NOT metabolized"
>>> result("Cc1ccccc1N1C(=O)c2cc(S(N)(=O)=O)c(Cl)cc2NC1C (stereo not drawn)")
"Compound NOT metabolized"
>>> result("CCCCCOC(=O)Nc1nc(=O)n([C@@H]2O[C@H](C)[C@@H](O)[C@H]2O)cc1F")
"Compound metabolized"
>>> result("CN(C(=O)CN(CCO)CC(=O)N(C)C(C)(C)Cc1ccccc1)C(C)(C)Cc1ccccc1")
"Compound metabolized"

Field Bacterial Biotransformation (entry OCCOCCN1CCN(C2=Nc3ccccc3Sc3ccccc32)CC1 ) reads Compound metabolized

Reported Bacterial Biotransformation ( OC(CCN1CCCCC1)(c1ccccc1)C1CCCCC1 (stereo not drawn) ) = Compound metabolized

Recorded Bacterial Biotransformation (compound CC(C)(C(=O)O)c1ccc(C(O)CCCN2CCC(C(O)(c3ccccc3)c3ccccc3)CC2)cc1 (stereo not drawn) [FEXOFENADINE] ): Compound NOT metabolized

Measured Bacterial Biotransformation, CN1CCN(CC/C=C2/c3ccccc3Sc3ccc(S(=O)(=O)N(C)C)cc32)CC1 : Compound metabolized

Lab note: O=C1[C@H](CC[C@H](O)c2ccc(F)cc2)[C@@H](c2ccc(O)cc2)N1c1ccc(F)cc1 gave Bacterial Biotransformation of Compound metabolized

What the record says about CCCc1nc2c(C)cc(-c3nc4ccccc4n3C)cc2n1Cc1ccc(-c2ccccc2C(=O)O)cc1 : Bacterial Biotransformation is Compound metabolized

Per the records, this compound ( Cc1ccc(-c2nc3ccc(C)cn3c2CC(=O)N(C)C)cc1 ) has Bacterial Biotransformation equal to Compound metabolized

====

measurement conditions: human gut metagenome, 24 h, 2 µM
experimental endpoint: Bacterial Biotransformation

>>> result("CCc1nn(CCCN2CCN(c3cccc(Cl)c3)CC2)c(=O)n1CCOc1ccccc1")
"Compound NOT metabolized"
>>> result("CN(C)C(=O)C(CCN1CCC(O)(c2ccc(Cl)cc2)CC1)(c1ccccc1)c1ccccc1 [LOPERAMIDE]")
"Compound metabolized"
>>> result("C[C@@H](CO)NC(=O)[C@@H]1C=C2c3cccc4[nH]cc(c34)C[C@H]2N(C)C1.O=C(O)/C=C\\C(=O)O [ERGONOVINE MALEATE]")
"Compound metabolized"
>>> result("Nc1c2c(nc3ccccc13)CCCC2")
"Compound NOT metabolized"
>>> result("CS(=O)(=O)O.O.O.O.O=C1Cc2cc(CCN3CCN(c4nsc5ccccc45)CC3)c(Cl)cc2N1 [ZIPRASIDONE MESYLATE]")
"Compound NOT metabolized"
>>> result("CCN(CC)CCNC(=O)c1cc(Cl)c(N)cc1OC [METOCLOPRAMIDE]")
"Compound NOT metabolized"
>>> result("CNS(=O)(=O)Cc1ccc2[nH]cc(CCN(C)C)c2c1.O=C(O)CCC(=O)O [SUMATRIPTAN SUCCINATE]")
"Compound NOT metabolized"

Now for another entry.
Consider COc1c(C)c2c(c(O)c1C/C=C(\C)CCC(=O)OCCN1CCOCC1)C(=O)OC2 [MYCOPHENOLATE MOFETIL] . Its measured Bacterial Biotransformation is Compound metabolized

====

assay overview: The drug is tested on WLS-240 corresponding to human gut metagenome with ENA study accession number: PRJEB37062 and ENA sample accession number: ERS12561773 for biotransformation under anaerobic condition. The drug concentrations were measured over 9 timepoints collected between 0 and 24 hours of incubation by liquid-chromatography-coupled mass spectrometry (LC–MS)
measurement conditions: 2 µM
experimental endpoint: Bacterial Biotransformation

These solved cases illustrate the format of a correct answer.
>>> result("Cc1ccc(-c2nc3ccc(C)cn3c2CC(=O)N(C)C)cc1 [ZOLPIDEM]")
"Compound metabolized"
>>> result("COC(=O)C1=C(C)NC(C)=C(C(=O)OC(C)C)C1c1cccc2nonc12 (configuration not stated) [ISRADIPINE]")
"Compound metabolized"
>>> result("CCCCC(=O)N(Cc1ccc(-c2ccccc2-c2nnn[nH]2)cc1)[C@H](C(=O)O)C(C)C")
"Compound metabolized"
>>> result("C#C[C@]1(O)CC[C@H]2[C@@H]3CCC4=Cc5oncc5C[C@]4(C)[C@H]3CC[C@@]21C [DANAZOL]")
"Compound metabolized"
>>> result("CCOC(=O)[C@H](CCc1ccccc1)N[C@@H](C)C(=O)N1[C@H](C(=O)O)C[C@@H]2CCC[C@@H]21")
"Compound metabolized"

Entry under test: COc1ccccc1OCC(O)COC(N)=O (configuration not stated) [METHOCARBAMOL] . Its Bacterial Biotransformation was Compound NOT metabolized

// field: Bacterial Biotransformation; key: CC(C)NCC(O)c1ccc(NS(C)(=O)=O)cc1 (configuration not stated) [SOTALOL] ; value = Compound NOT metabolized

Field Bacterial Biotransformation (entry CCc1nn(CCCN2CCN(c3cccc(Cl)c3)CC2)c(=O)n1CCOc1ccccc1 [NEFAZODONE] ) reads Compound metabolized

Bacterial Biotransformation for COc1cc2nc(N3CCN(C(=O)c4ccco4)CC3)nc(N)c2cc1OC [PRAZOSIN] is Compound metabolized

The reported Bacterial Biotransformation of the molecule CN1CC(=O)N2[C@H](c3ccc4c(c3)OCO4)c3[nH]c4ccccc4c3C[C@@H]2C1=O was Compound metabolized

Lab note: measured Bacterial Biotransformation of CCCC(=O)Nc1ccc(OCC(O)CNC(C)C)c(C(C)=O)c1 (configuration not stated) [ACEBUTOLOL] was Compound metabolized

Looking up CN1CCOC(c2ccccc2)c2ccccc2C1 (configuration not stated) [NEFOPAM] , I found its Bacterial Biotransformation recorded as Compound NOT metabolized

Reported Bacterial Biotransformation of CC(C)(Oc1ccc(CCNC(=O)c2ccc(Cl)cc2)cc1)C(=O)O [BEZAFIBRATE] : Compound metabolized

Form field Bacterial Biotransformation, entry CC(C)(C)NC[C@H](O)COc1ccccc1C1CCCC1.CC(C)(C)NC[C@H](O)COc1ccccc1C1CCCC1.O=S(=O)(O)O [PENBUTOLOL SULFATE] : Compound metabolized
